# Cmax listing for each entry below
measurement_protocol: in vivo
condition_label: Sprague-Dawley, rat, po, 39.2 g/kg/day, C max, MG group: AIA rats, saline 21 days, then oral SM 39.2 g crude drug/kg, plasma, mean ± SEM

| mol_smiles | Cmax (µg/mL) |
| --- | --- |
| C[C@@]12C[C@@]3(O)O[C@@H](O1)[C@]1(COC(=O)c4ccccc4)[C@H]3C[C@@]12O[C@@H]1O[C@H](CO)[C@@H](O)[C@H](O)[C@H]1O | 1.92 |
| O=C(/C=C/c1ccc(O[C@@H]2O[C@H](CO)[C@@H](O)[C@H](O)[C@H]2O)cc1)c1ccc(O)cc1O | 0.0136 |
| C[C@@]12C[C@@]3(O)O[C@@H](O1)[C@]1(COC(=O)c4ccccc4)[C@H]3C[C@@]12O[C@@H]1O[C@H](COC(=O)c2ccccc2)[C@@H](O)[C@H](O)[C@H]1O | 0.0148 |
| CN[C@@H](C)[C@H](O)c1ccccc1 | 0.674 |
| O=C1C[C@@H](c2ccc(O[C@@H]3O[C@H](CO)[C@@H](O)[C@H](O)[C@H]3O)cc2)Oc2cc(O)ccc21 | 0.126 |
| COc1ccc(-c2coc3cc(O)ccc3c2=O)cc1O | 0.00848 |

====

measurement_protocol: in vivo
condition_label: Sprague-Dawley, rat, po, 39.2 g/kg/day, C max, MPS group: AIA rats, oral PS 9.8 g crude drug/kg/day 21 days, then oral SM 39.2 g crude drug/kg, plasma, mean ± SEM

| mol_smiles | Cmax / ng/mL |
| --- | --- |
| C[C@@]12C[C@@]3(O)O[C@@H](O1)[C@]1(COC(=O)c4ccccc4)[C@H]3C[C@@]12O[C@@H]1O[C@H](COC(=O)c2ccccc2)[C@@H](O)[C@H](O)[C@H]1O | 24.3 |
| CN[C@@H](C)[C@H](O)c1ccccc1 | 662 |
| COc1ccc(-c2coc3cc(O)ccc3c2=O)cc1O | 6.61 |
| C[C@@]12C[C@@]3(O)O[C@@H](O1)[C@]1(COC(=O)c4ccccc4)[C@H]3C[C@@]12O[C@@H]1O[C@H](CO)[C@@H](O)[C@H](O)[C@H]1O | 2060 |
| O=C(/C=C/c1ccc(O[C@@H]2O[C@H](CO)[C@@H](O)[C@H](O)[C@H]2O)cc1)c1ccc(O)cc1O | 14.2 |

====

measurement_protocol: in vivo
condition_label: Sprague-Dawley, rat, po, 39.2 g/kg/day, AUC 0-∞, MG group: AIA rats, saline 21 days, then oral SM 39.2 g crude drug/kg, plasma, mean ± SEM

| molecule | AUC(0-inf) / ng·h/mL |
| --- | --- |
| O=C(/C=C/c1ccc(O[C@@H]2O[C@H](CO)[C@@H](O)[C@H](O)[C@H]2O)cc1)c1ccc(O)cc1O [Isoliquiritin] | 30.8 |
| C[C@@]12C[C@@]3(O)O[C@@H](O1)[C@]1(COC(=O)c4ccccc4)[C@H]3C[C@@]12O[C@@H]1O[C@H](COC(=O)c2ccccc2)[C@@H](O)[C@H](O)[C@H]1O [Benzoylpaeoniflorin] | 30.6 |
| C[C@@]12C[C@@]3(O)O[C@@H](O1)[C@]1(COC(=O)c4ccccc4)[C@H]3C[C@@]12O[C@@H]1O[C@H](CO)[C@@H](O)[C@H](O)[C@H]1O [Paeoniflorin] | 2460 |

====

# T max listing for each entry below
measurement_protocol: PK study of SM components in plasma of AIA rats by UPLC-MS/MS (MG vs MPS group)
condition_label: MG group: AIA rats, saline 21 days, then oral SM 39.2 g crude drug/kg; plasma; mean ± SEM

| mol_smiles | units_text | T max |
| --- | --- | --- |
| O=C1C[C@@H](c2ccc(O)cc2)Oc2cc(O)ccc21 | min | 8.34 |
| CN[C@@H](C)[C@H](O)c1ccccc1 | min | 15 |
| COC[C@@]12CC[C@H](OC)[C@]34C([C@H]([C@H](OC)[C@H]13)[C@]1(O)[C@H]3[C@@H](OC(=O)c5ccccc5)[C@](O)(C[C@H]34)[C@@H](OC)[C@@H]1O)N(C)C2 | min | 4.98 |
| C[C@]12C[C@@H](O)[C@@H]3C[C@@]1(O[C@@H]1O[C@H](CO)[C@@H](O)[C@H](O)[C@H]1O)[C@@]3(COC(=O)c1ccccc1)C(=O)O2 | min | 15 |

====

measurement_protocol: in vivo
condition_label: Sprague-Dawley, rat, po, 39.2 g/kg/day, AUC 0-t
outcome_measure: AUC 0-t

| mol_smiles | reported_value |
| --- | --- |
| C=C1[C@H]2C[C@@]3([C@@H]1O)[C@@H](CC2=O)[C@]12[C@@H]4C[C@H]3[C@H]1N(CC)C[C@]4(C)CC[C@@H]2O | 0.0602 µg·h/mL |

====

# C max listing for each entry below
measurement_protocol: PK study of SM components in plasma of AIA rats by UPLC-MS/MS (MG vs MPS group)
condition_label: MG group: AIA rats, saline 21 days, then oral SM 39.2 g crude drug/kg; plasma; mean ± SEM

| mol_smiles | C max [ng/mL] |
| --- | --- |
| C[C@]12C[C@@H](O)[C@@H]3C[C@@]1(O[C@@H]1O[C@H](CO)[C@@H](O)[C@H](O)[C@H]1O)[C@@]3(COC(=O)c1ccccc1)C(=O)O2 | 287.831 |
| CCN1C[C@]2(COC)CC[C@H](OC)[C@]34C1[C@H](C[C@H]23)[C@@]1(O)C[C@H](OC)[C@H]2C[C@@H]4[C@@H]1[C@H]2O | 3.376 |
| O=C1C[C@@H](c2ccc(O)cc2)Oc2cc(O)ccc21 | 25.519 |

====

# AUC 0-t listing for each entry below
measurement_protocol: in vivo
condition_label: Sprague-Dawley, rat, po, 39.2 g/kg/day, AUC 0-t, MPS group: AIA rats, oral PS 9.8 g crude drug/kg/day 21 days, then oral SM 39.2 g crude drug/kg, plasma, mean ± SEM

| mol_smiles | AUC 0-t |
| --- | --- |
| C[C@@]12C[C@@]3(O)O[C@@H](O1)[C@]1(COC(=O)c4ccccc4)[C@H]3C[C@@]12O[C@@H]1O[C@H](CO)[C@@H](O)[C@H](O)[C@H]1O | 2870 ng·h/mL |
| C[C@@]12C[C@@]3(O)O[C@@H](O1)[C@]1(COC(=O)c4ccccc4)[C@H]3C[C@@]12O[C@@H]1O[C@H](COC(=O)c2ccccc2)[C@@H](O)[C@H](O)[C@H]1O | 31.6 ng·h/mL |
| O=C(/C=C/c1ccc(O[C@@H]2O[C@H](CO)[C@@H](O)[C@H](O)[C@H]2O)cc1)c1ccc(O)cc1O | 21.9 ng·h/mL |
| COc1ccc(-c2coc3cc(O)ccc3c2=O)cc1O | 12.4 ng·h/mL |

====

measurement_protocol: PK study of SM components in plasma of AIA rats by UPLC-MS/MS (MG vs MPS group)
condition_label: Sprague-Dawley, rat, plasma, po, 39.2 g/kg/day, C max, MG group: AIA rats, saline 21 days, then oral SM 39.2 g crude drug/kg; plasma; mean ± SEM

| compound | units_text | Cmax |
| --- | --- | --- |
| CC1(C)[C@@H](O)CC[C@]2(C)[C@H]3C(=O)C=C4[C@@H]5C[C@@](C)(C(=O)O)CC[C@]5(C)CC[C@@]4(C)[C@]3(C)CC[C@@H]12 [Glycyrrhetinic acid] | ng/mL | 7830 |
| O=C(/C=C/c1ccc(O)cc1)c1ccc(O)cc1O [Isoliquiritigenin] | ng/mL | 4 |
| COc1ccc(-c2coc3cc(O)ccc3c2=O)cc1 [Formononetin] | ng/mL | 7.39 |
| CC1(C)[C@@H](O[C@H]2O[C@H](C(=O)O)[C@@H](O)[C@H](O)[C@H]2O[C@@H]2O[C@H](C(=O)O)[C@@H](O)[C@H](O)[C@H]2O)CC[C@]2(C)[C@H]3C(=O)C=C4[C@@H]5C[C@@](C)(C(=O)O)CC[C@]5(C)CC[C@@]4(C)[C@]3(C)CC[C@@H]12 [Glycyrrhizic acid] | ng/mL | 3800 |

====

# AUC 0-∞ listing for each entry below
measurement_protocol: PK study of SM components in plasma of AIA rats by UPLC-MS/MS (MG vs MPS group)
condition_label: MG group: AIA rats, saline 21 days, then oral SM 39.2 g crude drug/kg; plasma; mean ± SEM

| mol_smiles | AUC 0-∞ [ng·h/mL] |
| --- | --- |
| CCN1C[C@]2(COC)CC[C@H](OC)[C@]34C1[C@H](C[C@H]23)[C@@]1(O)C[C@H](OC)[C@H]2C[C@@H]4[C@@H]1[C@H]2O | 30.766 |
| CCN1C[C@]2(COC)[C@H](O)C[C@H](OC)[C@@]34[C@@H]5C[C@@]6(O)[C@H](OC(=O)c7ccccc7)[C@@H]5[C@@](O)([C@@H]([C@H](OC)[C@H]23)[C@@H]14)[C@@H](O)[C@@H]6OC | 1.015 |
| COC[C@]12CN(C)C3[C@@H]4[C@H](OC)[C@H]1[C@@]3([C@@H](OC)C[C@H]2O)[C@@H]1C[C@@]2(O)[C@H](OC(=O)c3ccccc3)[C@@H]1[C@]4(O)[C@@H](O)[C@@H]2OC | 23.447 |
